MIC overview
# Tested on: Mycolicibacterium mageritense
# protocolDescription: Antibacterial activity against nonpigmented rapidly growing Mycobacterium mageritense after 3 days by broth microdilution method
# Type: functional
# measurementContext: 72 h
Only the number, expressed in µg/mL, is required.

Below are worked cases with known answers.
CC[C@H]1OC(=O)[C@H](C)[C@@H](O[C@H]2C[C@@](C)(OC)[C@@H](O)[C@H](C)O2)[C@H](C)[C@@H](O[C@@H]2O[C@H](C)C[C@H](N(C)C)[C@H]2O)[C@](C)(O)C[C@@H](C)C(=O)[C@H](C)[C@@H](O)[C@]1(C)O | 32
NCC[C@H](O)C(=O)N[C@@H]1C[C@H](N)[C@@H](O[C@H]2O[C@H](CN)[C@@H](O)[C@H](O)[C@H]2O)[C@H](O)[C@H]1O[C@H]1O[C@H](CO)[C@@H](O)[C@H](N)[C@H]1O | 0.5
CO[C@@]1(NC(=O)Cc2cccs2)C(=O)N2C(C(=O)O)=C(COC(N)=O)CS[C@@H]21 | 1

Now, please, on to the next molecule.
Fill in: MIC of `NC[C@H]1O[C@H](O[C@H]2[C@H](O)[C@@H](O[C@H]3O[C@H](CO)[C@@H](O)[C@H](N)[C@H]3O)[C@H](N)C[C@@H]2N)[C@H](N)C[C@@H]1O` is ___ 8

====

# Test system: Mycolicibacterium smegmatis
# protocolDescription: Antibacterial activity against nonpigmented rapidly growing Mycobacterium smegmatis after 3 days by broth microdilution method
# Type: functional
# measurementContext: 72 h
Catalogue of MIC readings, one per entry.

C[C@H]1COc2c(N3CCN(C)CC3)c(F)cc3c(=O)c(C(=O)O)cn1c23.C[C@H]1COc2c(N3CCN(C)CC3)c(F)cc3c(=O)c(C(=O)O)cn1c23.O | ≤ 0.03 µg/mL
O=C(O)c1cn(C2CC2)c2cc(N3CCNCC3)c(F)cc2c1=O | 0.12 µg/mL
NCC[C@H](O)C(=O)N[C@@H]1C[C@H](N)[C@@H](O[C@H]2O[C@H](CN)[C@@H](O)[C@H](O)[C@H]2O)[C@H](O)[C@H]1O[C@H]1O[C@H](CO)[C@@H](O)[C@H](N)[C@H]1O | ≤ 0.03 µg/mL

Field: next molecule
Please report the recorded MIC for `NC[C@H]1O[C@H](O[C@H]2[C@H](O)[C@@H](O[C@H]3O[C@H](CO)[C@@H](O)[C@H](N)[C@H]3O)[C@H](N)C[C@@H]2N)[C@H](N)C[C@@H]1O` . ≤ 0.03 µg/mL

====

MIC50 values, listed per item
# Test system: Mycolicibacterium fortuitum
# protocolDescription: Antibacterial activity against nonpigmented rapidly growing Mycobacterium fortuitum after 3 days by broth microdilution method
# Type: functional
# measurementContext: 72 h
Please state the figure in µg/mL; there is no need to write the unit.

Worked cases, answers included:
NC[C@H]1O[C@H](O[C@H]2[C@H](O)[C@@H](O[C@H]3O[C@H](CO)[C@@H](O)[C@H](N)[C@H]3O)[C@H](N)C[C@@H]2N)[C@H](N)C[C@@H]1O | 16
CC[C@H]1OC(=O)[C@H](C)[C@@H](O[C@H]2C[C@@](C)(OC)[C@@H](O)[C@H](C)O2)[C@H](C)[C@@H](O[C@@H]2O[C@H](C)C[C@H](N(C)C)[C@H]2O)[C@](C)(OC)C[C@@H](C)C(=O)[C@H](C)[C@@H](O)[C@]1(C)O | 2

Shifting focus to the compound that follows.
Could you tell me which MIC50 is on file for `C[C@H]1c2cccc(O)c2C(=O)C2=C(O)[C@]3(O)C(=O)C(C(N)=O)=C(O)[C@@H](N(C)C)[C@@H]3[C@@H](O)[C@@H]21.O` ? 4

====

MIC reference
# System: Mycobacterium alvei
# protocolDescription: Antibacterial activity against nonpigmented rapidly growing Mycobacterium alvei after 3 days by broth microdilution method
# Format: functional
# measurementContext: Mycolicibacterium alvei, 72 h

CC[C@H]1OC(=O)[C@H](C)[C@@H](O[C@H]2C[C@@](C)(OC)[C@@H](O)[C@H](C)O2)[C@H](C)[C@@H](O[C@@H]2O[C@H](C)C[C@H](N(C)C)[C@H]2O)[C@](C)(O)C[C@@H](C)CN(C)[C@H](C)[C@@H](O)[C@]1(C)O | ≤ 0.03 µg/mL

Report MIC for `NCC[C@H](O)C(=O)N[C@@H]1C[C@H](N)[C@@H](O[C@H]2O[C@H](CN)[C@@H](O)[C@H](O)[C@H]2O)[C@H](O)[C@H]1O[C@H]1O[C@H](CO)[C@@H](O)[C@H](N)[C@H]1O` please. ≤ 0.5 µg/mL

Repeat for the following compound: `NC[C@H]1O[C@H](O[C@H]2[C@H](O)[C@@H](O[C@H]3O[C@H](CO)[C@@H](O)[C@H](N)[C@H]3O)[C@H](N)C[C@@H]2N)[C@H](N)C[C@@H]1O` 4 µg/mL

Same for `O=C(O)c1cn(C2CC2)c2cc(N3CCNCC3)c(F)cc2c1=O` ≤ 0.03 µg/mL

Check `C[C@H]1COc2c(N3CCN(C)CC3)c(F)cc3c(=O)c(C(=O)O)cn1c23.C[C@H]1COc2c(N3CCN(C)CC3)c(F)cc3c(=O)c(C(=O)O)cn1c23.O` too. ≤ 0.03 µg/mL

Check `C[C@H]1c2cccc(O)c2C(=O)C2=C(O)[C@]3(O)C(=O)C(C(N)=O)=C(O)[C@@H](N(C)C)[C@@H]3[C@@H](O)[C@@H]21.O` too. ≤ 0.03 µg/mL

Same thing, different compound: `CC[C@H]1OC(=O)[C@H](C)[C@@H](O[C@H]2C[C@@](C)(OC)[C@@H](O)[C@H](C)O2)[C@H](C)[C@@H](O[C@@H]2O[C@H](C)C[C@H](N(C)C)[C@H]2O)[C@](C)(OC)C[C@@H](C)C(=O)[C@H](C)[C@@H](O)[C@]1(C)O` ≤ 0.03 µg/mL

====

# Tested on: Mycobacteroides chelonae
# protocolDescription: Antibacterial activity against nonpigmented rapidly growing Mycobacterium chelonae after 3 days by broth microdilution method
# Assay type: functional
# measurementContext: 72 h
quantityName: MIC50 (µg/mL)
The response must be a number in µg/mL with no trailing unit.

CC[C@H]1OC(=O)[C@H](C)[C@@H](O[C@H]2C[C@@](C)(OC)[C@@H](O)[C@H](C)O2)[C@H](C)[C@@H](O[C@@H]2O[C@H](C)C[C@H](N(C)C)[C@H]2O)[C@](C)(O)C[C@@H](C)CN(C)[C@H](C)[C@@H](O)[C@]1(C)O | 0.5

Which measured MIC50 value corresponds to `O=C(O)c1cn(C2CC2)c2cc(N3CCNCC3)c(F)cc2c1=O` ? 0.12

Please answer likewise for `CN(C)c1cc(NC(=O)CNC(C)(C)C)c(O)c2c1C[C@H]1C[C@H]3[C@H](N(C)C)C(O)=C(C(N)=O)C(=O)[C@@]3(O)C(O)=C1C2=O` 0.12

Try this molecule next: `C[C@H]1COc2c(N3CCN(C)CC3)c(F)cc3c(=O)c(C(=O)O)cn1c23.C[C@H]1COc2c(N3CCN(C)CC3)c(F)cc3c(=O)c(C(=O)O)cn1c23.O` 0.5

Same again, this time with `CC[C@H]1OC(=O)[C@H](C)[C@@H](O[C@H]2C[C@@](C)(OC)[C@@H](O)[C@H](C)O2)[C@H](C)[C@@H](O[C@@H]2O[C@H](C)C[C@H](N(C)C)[C@H]2O)[C@](C)(O)C[C@@H](C)C(=O)[C@H](C)[C@@H](O)[C@]1(C)O` 0.5

====

# System: Mycobacteroides abscessus
# protocolDescription: Antibacterial activity against nonpigmented rapidly growing Mycobacterium abscessus after 3 days by broth microdilution method
# Assay type: functional
# measurementContext: 72 h
quantityName: MIC90 (µg/mL)
Please respond with the number in µg/mL and leave the unit unwritten.

# count of solved cases: 5
O=C(O)c1cn(C2CC2)c2cc(N3CCNCC3)c(F)cc2c1=O [CIPROFLOXACIN] | 8
C[C@H]1COc2c(N3CCN(C)CC3)c(F)cc3c(=O)c(C(=O)O)cn1c23.C[C@H]1COc2c(N3CCN(C)CC3)c(F)cc3c(=O)c(C(=O)O)cn1c23.O [LEVOFLOXACIN] | 32
NCC[C@H](O)C(=O)N[C@@H]1C[C@H](N)[C@@H](O[C@H]2O[C@H](CN)[C@@H](O)[C@H](O)[C@H]2O)[C@H](O)[C@H]1O[C@H]1O[C@H](CO)[C@@H](O)[C@H](N)[C@H]1O [AMIKACIN] | 8
CC[C@H]1OC(=O)[C@H](C)[C@@H](O[C@H]2C[C@@](C)(OC)[C@@H](O)[C@H](C)O2)[C@H](C)[C@@H](O[C@@H]2O[C@H](C)C[C@H](N(C)C)[C@H]2O)[C@](C)(O)C[C@@H](C)C(=O)[C@H](C)[C@@H](O)[C@]1(C)O [ERYTHROMYCIN] | 16
CC[C@H]1OC(=O)[C@H](C)[C@@H](O[C@H]2C[C@@](C)(OC)[C@@H](O)[C@H](C)O2)[C@H](C)[C@@H](O[C@@H]2O[C@H](C)C[C@H](N(C)C)[C@H]2O)[C@](C)(OC)C[C@@H](C)C(=O)[C@H](C)[C@@H](O)[C@]1(C)O [CLARITHROMYCIN] | 1

Now examine the next entry.
If you can, please state the reported MIC90 value of CN(C)c1cc(NC(=O)CNC(C)(C)C)c(O)c2c1C[C@H]1C[C@H]3[C@H](N(C)C)C(O)=C(C(N)=O)C(=O)[C@@]3(O)C(O)=C1C2=O [TIGECYCLINE] . 0.5
